Target: T1, hVEGF-A (8-109) (human, UniProt P15692 214-315)
T1 sequence (looked up): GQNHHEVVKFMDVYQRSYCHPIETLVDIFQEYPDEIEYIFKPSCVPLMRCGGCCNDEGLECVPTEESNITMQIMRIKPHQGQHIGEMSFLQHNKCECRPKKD
Assay: spot phage ELISA
Where ELISA equals or exceeds 2, the correct label is yes; where it does not, the label is no.

{"binder": "GCQLMQPFWGCKQDSDCLAGCVCHWYQSCG (designed binder, also called E9) [VEGF_CKP9]", "classification": "yes"}
{"binder": "GCPAIQNWKEHPCKQDSDCLAGCVCSWWPSLCG (designed binder) [VEGF_CKP5]", "classification": "no"}
{"binder": "GCQLMHPFWGCKQDSDCLAGCVCHWYRSCG (designed binder) [VEGF_CKP8]", "classification": "yes"}
{"binder": "GCRDLDVKWDCKQDSDCLAGCFCQYYSSCG (designed binder) [VEGF_CKP10]", "classification": "yes"}
{"binder": "GCNIMLPFWGCGWDQFCLAGCVCQYYQSCG (designed binder) [VEGF_CKP9.54.51]", "classification": "yes"}
{"binder": "GCQLMQPFWGCKQDSDCLAGCVCRWYNSCG (designed binder) [VEGF_CKP9.L5.7]", "classification": "no"}
{"binder": "GCNIMLPFWGCSGDFACLAGCVCQYYQSCG (designed binder) [VEGF_CKP9.54.64]", "classification": "yes"}
{"binder": "GCNIMLPFWGCGKDFHCLAGCVCQYYQSCG (designed binder) [VEGF_CKP9.54.56]", "classification": "yes"}
{"binder": "GCNIMLPFWGCSRDFDCLAGCVCQYYQSCG (designed binder) [VEGF_CKP9.54.44]", "classification": "yes"}
{"binder": "GCPTTRFKQYCKQDSDCLAGCVCGPNGFCG (designed binder) [VEGF_CKP6]", "classification": "yes"}
{"binder": "GCNIMLPFWGCGPELNCLAGCVCQYYQSCG (designed binder) [VEGF_CKP9.54.12]", "classification": "yes"}
{"binder": "GCPRILMRCKQDSDCLAGCVCGPNGFCG (also called wild type EETI-II) [EETI-II]", "classification": "no"}
{"binder": "GCNIMLPFWGCGQSFECLAGCVCQYYQSCG (designed binder) [VEGF_CKP9.54.1]", "classification": "yes"}
{"binder": "GCNIMLPFWGCGKELNCLAGCVCQYYQSCG (designed binder) [VEGF_CKP9.54.69]", "classification": "yes"}

Where do these numbers come from? They come from patent US20200325187A1.
